- System: PPARg:RXRa IVT, anti-PPARg (NR concentration 270 nM, RXRa partner concentration 90 nM)
- experimentSummary: PBM binding z-score (relative to random genomic background probes); higher = stronger binding; sequences stand for … in GC…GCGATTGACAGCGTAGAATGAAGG
Label scheme for PBM binding z-score: lower than 2 is no (0), 2 and above is yes (1).

Could you please find out whether `ATCTCTAGGTAAAGTTCAGTTAAAGATCGATAGA` has PBM binding z-score that meets 2 or exceeds it?
yes (1)

Could you please find out whether `CAAACTAGGTCACAGAGGTCAAAGACCGTGCGTA` has PBM binding z-score that meets 2 or exceeds it?
yes (1)

Could you please find out whether `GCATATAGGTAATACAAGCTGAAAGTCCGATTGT` has PBM binding z-score that meets 2 or exceeds it?
yes (1)

Could you please find out whether `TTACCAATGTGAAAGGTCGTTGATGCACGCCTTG` has PBM binding z-score that meets 2 or exceeds it?
yes (1)

Could you please find out whether `ACAGACGGGTGAGTGAAGGTAACTCAGCTGGACG` has PBM binding z-score that meets 2 or exceeds it?
no (0)

Could you please find out whether `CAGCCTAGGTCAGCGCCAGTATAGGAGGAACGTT` has PBM binding z-score that meets 2 or exceeds it?
no (0)
